target: human recombinant mGluR5 (Homo sapiens); construct: expressed in transfected cells; host or cells: HEK 293 cell line, cultured with tetracycline, hygromycin and geneticin; tetracycline is withdrawn 3-7 days before the assay; experiment: positive modulation of mGluR5, calcium based FLIPR assay; assay type: cell-based; details: EC50 of the modulation; HEK 293 cell line expressing human recombinant mGluR5; peak height of Ca fluorescence signal after glutamate at approx. 5% basal stimulation; read-out: EC50
Sequence (P41594 21-1212): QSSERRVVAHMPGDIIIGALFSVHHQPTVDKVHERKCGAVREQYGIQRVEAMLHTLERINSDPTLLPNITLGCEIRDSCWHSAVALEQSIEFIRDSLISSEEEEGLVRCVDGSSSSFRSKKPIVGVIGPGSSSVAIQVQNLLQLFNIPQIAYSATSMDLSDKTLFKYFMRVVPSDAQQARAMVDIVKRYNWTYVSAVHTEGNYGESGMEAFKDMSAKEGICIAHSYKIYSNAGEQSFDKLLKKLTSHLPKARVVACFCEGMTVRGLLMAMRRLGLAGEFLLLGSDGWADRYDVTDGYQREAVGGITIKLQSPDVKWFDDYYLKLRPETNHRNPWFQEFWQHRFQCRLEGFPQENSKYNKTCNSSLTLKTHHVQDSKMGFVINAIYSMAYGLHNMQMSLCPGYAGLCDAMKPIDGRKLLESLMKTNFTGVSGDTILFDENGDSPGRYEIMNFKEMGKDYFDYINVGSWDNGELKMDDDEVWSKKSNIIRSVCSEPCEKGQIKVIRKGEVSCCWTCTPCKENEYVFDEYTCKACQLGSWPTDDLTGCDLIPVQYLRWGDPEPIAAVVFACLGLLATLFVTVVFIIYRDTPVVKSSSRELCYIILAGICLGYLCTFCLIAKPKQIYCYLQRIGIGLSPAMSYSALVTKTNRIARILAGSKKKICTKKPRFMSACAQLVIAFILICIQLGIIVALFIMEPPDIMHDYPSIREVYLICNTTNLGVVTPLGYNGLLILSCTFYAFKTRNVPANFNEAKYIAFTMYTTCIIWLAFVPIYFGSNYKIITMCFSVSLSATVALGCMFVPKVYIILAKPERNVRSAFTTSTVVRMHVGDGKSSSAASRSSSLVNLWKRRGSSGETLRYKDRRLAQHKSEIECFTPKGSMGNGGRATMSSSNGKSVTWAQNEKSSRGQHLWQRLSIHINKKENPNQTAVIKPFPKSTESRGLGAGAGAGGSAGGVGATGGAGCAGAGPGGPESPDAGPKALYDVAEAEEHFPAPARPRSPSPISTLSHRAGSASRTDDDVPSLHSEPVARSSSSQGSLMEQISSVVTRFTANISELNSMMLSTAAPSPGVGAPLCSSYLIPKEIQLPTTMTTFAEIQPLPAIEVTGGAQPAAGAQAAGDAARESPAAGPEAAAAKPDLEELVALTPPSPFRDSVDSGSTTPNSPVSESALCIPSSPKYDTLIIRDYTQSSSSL
The entries below come with measured log10 of EC50 values attached.
reported_endpoint: log10 of EC50 (log10 of the value in nM)

- molecule: "CC1CN(c2ccccn2)CCN1C(=O)Cn1nc(-c2ccc(F)cc2)nc1-c1ccc(F)cc1 (stereo not drawn)"
  test_target: "human recombinant mGluR5 (Homo sapiens)"
  log10 of EC50: 2.80
- molecule: "Cc1cc(-c2nc(C3CCCCC3)n(CC(=O)N3CCc4nc(N)sc4CC3)n2)ccc1F"
  test_target: "human recombinant mGluR5 (Homo sapiens)"
  log10 of EC50: 2.57
- molecule: "Nc1nc2c(s1)CCN(C(=O)Cn1nc(-c3ccc(F)cc3)nc1-c1ccc(F)cc1)CC2 [Example 7.03.001.]"
  test_target: "human recombinant mGluR5 (Homo sapiens)"
  log10 of EC50: 2.21
- molecule: "CC1CN(C(=O)Cn2nc(-c3ccc(F)cc3)nc2-c2ccc(F)cc2)CCN1c1ncccn1 (stereo not drawn)"
  test_target: "human recombinant mGluR5 (Homo sapiens)"
  log10 of EC50: 2.32
- molecule: "COc1cccc(N2CCN(C(=O)Cn3nc(-c4ccc(F)cc4)nc3-c3ccc(F)cc3)CC2=O)n1"
  test_target: "human recombinant mGluR5 (Homo sapiens)"
  log10 of EC50: 2.21
- molecule: "O=C(Cn1nc(-c2ccc(F)cc2)nc1-c1ccc(F)cc1)N1CCc2nc(N3CCOCC3)sc2CC1"
  test_target: "human recombinant mGluR5 (Homo sapiens)"
  log10 of EC50: 3.22
- molecule: "CCCc1nc(-c2ccc(OC(F)F)cc2)nn1CC(=O)N1CCN(c2noc(C)n2)CC1"
  test_target: "human recombinant mGluR5 (Homo sapiens)"
  log10 of EC50: 2.68
- molecule: "COc1cc2c(cc1OC)CCN(C(=O)Cn1nc(-c3ccc(F)c(C)c3)nc1-c1ccccc1)CC2"
  test_target: "human recombinant mGluR5 (Homo sapiens)"
  log10 of EC50: 2.19
- molecule: "Nc1nc2c(s1)CCN(C(=O)Cn1nc(-c3ccc(F)cc3)nc1-c1ccc(F)cc1)CC2 [Example 7.03.013.]"
  test_target: "human recombinant mGluR5 (Homo sapiens)"
  log10 of EC50: 2.15
- molecule: "CNC(=O)Nc1nc2c(s1)CN(C(=O)Cn1nc(-c3ccc(F)cc3)nc1-c1ccc(F)cc1)CC2"
  test_target: "human recombinant mGluR5 (Homo sapiens)"
  log10 of EC50: 3.03
- molecule: "O=C(Cn1nc(-c2ccc(F)cc2)nc1-c1ccc(F)cc1)N1CCN(c2nc3ccccc3o2)CC1"
  test_target: "human recombinant mGluR5 (Homo sapiens)"
  log10 of EC50: 2.15
- molecule: "Cc1nc2c(s1)CCN(C(=O)Cn1nc(-c3ccc(F)c(C)c3)nc1C(C)C)CC2"
  test_target: "human recombinant mGluR5 (Homo sapiens)"
  log10 of EC50: 2.51
- molecule: "Cc1nc(C2CCN(C(=O)Cn3nc(-c4ccc(F)cc4)nc3-c3ccc(F)cc3)CC2)oc1C"
  test_target: "human recombinant mGluR5 (Homo sapiens)"
  log10 of EC50: 2.93
- molecule: "CCCCc1nc(-c2ccc(F)c(C)c2)nn1CC(=O)N1CCN(c2cccc(OC)c2)C(=O)C1"
  test_target: "human recombinant mGluR5 (Homo sapiens)"
  log10 of EC50: 2.48
- molecule: "O=C(Cn1nc(-c2ccc(F)cc2)nc1-c1ccc(F)cc1)N1CCC(c2ccon2)CC1"
  test_target: "human recombinant mGluR5 (Homo sapiens)"
  log10 of EC50: 2.67
